The following sequences are shown together with reported soluble fraction (log2) values.
# assay comment: soluble fraction after stress (log2 fold change); higher = more stays soluble; pooled small domains, quantitative proteomics
# test context: stress: 50 degC
Please give the numeric answer without any surrounding text.

Example sequences with recorded soluble fraction (log2):
| monomer sequence | reported result |
| --- | --- |
| HMVSQKPKERELWFREQLELAGLRLDPHAISAINETLGNDTGRFPGIIDTLLSTYGAGKKLSYDDVVMFL | -0.477 |
| HMVDSTDLIPLLIKVSREKQGNKKLNWGEWLKIPENIYLKQINENIARKVFEDTNDLIDEAVNYINRKRRN | -0.602 |
| HMNHSITLTERKNLLITGVKKIENFDKEEFLIETTMGFLVVKGDGLELIKLDTISGNVSIKGIVNGFTYID | 0.223 |
| HMAVELPLETTLDIVRKYARNQEVDRRAERVEAVSAEALQTLAPRGTKLASEIVEQAKTQVLEELA | 0.177 |
| HMAATISPEIQAEAEKAAALGVESIKNFMASLKEKNPEQHALFSDSEKRRLYAIARKADLNTTQQG | -0.103 |
| HMAIKWTPEIEDEVSNKLKEKWSPEQISAWLKKNKSIMISHQRIYQFIVEDKMSGGNLYRNLRQ | -0.695 |
| HMRKRLLQLVHIGKSQLGMDDETYRSLLSQQFYQNSAKNISYSELVKLVKILQQKGAKIRLPH | -1.9 |
| HMINGTITFYDDTTLKGELSSLDTKYLFIIPNGLVMPEKIAVSDIEYFNLDNGITLIQDGISKQTY | -1.25 |

Exam item: Provide measured soluble fraction (log2) value, entry: HMRQSDIAAAFRESILRSSKGFQYLHTRDFVTALRRRGIHLSEVEANSWIAREKTYFVDSALDHSENRLWI
Marked response: -1.6

Exam item: State its soluble fraction (log2): HMVDLLDETLIEFYAFANNLIKDLETNSEKYGGMSQFEKELIFNEQITQYQRKLKIDLQDEVG
Marked response: -1.54

Exam item: Input HMVEYFDDENLDAFIGRESDSYTEKEIEQFREILYTMNQKEVADWNRSLTIRGINIPNDLKDEMIMMI , output reported soluble fraction (log2).
Marked response: -0.438

Attribution: the domain aggregation screens of Martell et al. (2025)
